Tested on: HCT-15 colon
Experiment: NCI tumour cell line growth inhibition, 48 h
Let's look at some compounds and their measured TGI.
Result type: TGI

>>> df
                                    compound  experimental_system    result
 0         COc1ccc2nc3ccc(OC)cc3c(SCCCN)c2c1         HCT-15 colon   20.2 µM
 1  Cc1nc2c(n1Cc1ccc(Cl)cc1)C(=O)c1ccccc1C2=O         HCT-15 colon   > 75 µM
 2  COc1ccc(C2=CC(c3cc(OC)c(OC)c(OC)c3)n3ncnc3N2)cc1 (stereo not drawn)         HCT-15 colon  > 100 µM
 3           NC(N)=N/N=C(\c1ccc(Cl)cc1)C1CC1         HCT-15 colon   40.2 µM
 4  COc1ccccc1C(=O)c1cnc(NC2CCN(S(C)(=O)=O)CC2)nc1N         HCT-15 colon   > 25 µM
 5  Oc1ccc(-c2c3c(nc4c2CCc2ccc(Br)cc2-4)-c2cc(Br)ccc2CC3)cc1         HCT-15 colon   35.5 µM
 6          O=C1c2ccccc2-c2cc3ccccc3c(=O)n21         HCT-15 colon  > 100 µM
 7  CCCCCCCCCCCCCCCCOCC(CC(F)(F)P(=O)(O)O)OC(C)=O (stereo not drawn)         HCT-15 colon   > 50 µM
 8  CN1CC2(CCCCC2)C(O)C12C=CCCC2 (stereo not drawn)         HCT-15 colon  > 100 µM
 9  Cc1ccc2c(c1)c(=O)c1c(NCCN(C)C)ccc3nnn2c31         HCT-15 colon   20.3 µM
10  CCOC(=O)/C=C1\Nc2ccccc2C(c2ccccc2)=NC1OC(C)=O (stereo not drawn)         HCT-15 colon  > 100 µM
11  CC1OC(=O)N(CCCC=C2SCCCS2)C1=O (stereo not drawn)         HCT-15 colon  > 100 µM
12         CCC1OCCN1C(C)C (stereo not drawn)         HCT-15 colon  > 100 µM
13  Cc1cc(NS(=O)(=O)c2ccc(Nc3c4ccccc4nc4c(C(=O)NCCN(C)C)ccc(Cl)c34)cc2)no1         HCT-15 colon   19.5 µM
14     COc1ccccc1C(=O)c1c(N2CCCCC2)c(=O)c1=O         HCT-15 colon  > 100 µM
15  CCOC(=O)c1c2c(n(C)c1-c1ccccc1)C(=O)C(C)=CC2=O         HCT-15 colon   17.7 µM
16  O=C1/C(=C/c2cccc(Oc3ccccc3)c2)N=C(c2ccccc2)N1c1nc2ccc(Sc3ccccc3)cc2[nH]1         HCT-15 colon  > 100 µM
17  COc1ccc(Cn2nc(OCc3ccccn3)c3cc([N+](=O)[O-])ccc32)cc1         HCT-15 colon  > 100 µM
18  Cc1ccc(S(=O)(=O)C(C#N)c2nc3ccccc3nc2-n2cccn2)cc1 (stereo not drawn)         HCT-15 colon  > 100 µM
19       O=C(O)c1cc(Cl)cc(NC(=O)C(Cl)Cl)c1Cl         HCT-15 colon  > 100 µM
20       CCCCn1cc(C(=O)O)c(=O)c2c3sccc3ccc21         HCT-15 colon  > 100 µM
21  C#CC(C)(C)Oc1cc(OC)c2c(=O)c3ccccc3n(C)c2c1         HCT-15 colon   44.5 µM
22  COc1ccc(CNc2nc(NCc3ccc(OC)cc3)nc(NC3CCCCC3)n2)cc1         HCT-15 colon   9.52 µM
23               O=C1NC(=O)/C(=C\c2ccncc2)N1         HCT-15 colon  > 100 µM
24  CO[C@H]1C=C[C@]23c4cc5c(cc4CN(CC2O)[C@@H]3C1)OCO5 (stereo partly drawn)         HCT-15 colon   24.9 µM
25  O=C(Cc1nc2ccc(C(=O)c3ccccc3)cc2[nH]c1=O)C(=O)Nc1ccccc1[N+](=O)[O-]         HCT-15 colon  > 100 µM
26  COC(=O)Cc1c(C2=Nc3ccccc3C2(O)CC(=O)OC)[nH]c2ccccc12 (stereo not drawn)         HCT-15 colon  > 100 µM
27  CCOC(=O)C1C(c2cc(OC)c(O)c(OC)c2)c2cc3c(cc2OC1(C)O)OCO3 (stereo not drawn)         HCT-15 colon  > 100 µM
28  C/C(=N\N(C)C)C(CN(C)C)C(c1ccccc1)c1c(O)c2ccccc2oc1=O (stereo not drawn)         HCT-15 colon  > 100 µM
29  CCCCCCCCCCCCOC1C(COCCN2CCCC2)OC2OC(C)(C)OC21 (stereo not drawn)         HCT-15 colon   3.17 µM
30  CC[C@]12C=CCN3CC[C@]4(C(=C(C(=O)OC)C1)Nc1cc(O)ccc14)[C@@H]32         HCT-15 colon   36.5 µM
31  CC(C)=CC(=O)O[C@@H]1CC(C)(C)CC2C3=CCC4[C@]56CC[C@](O)(OC5)C(C)(C)C6CC[C@@]4(C)C3(C)CC[C@]21C(=O)O (stereo partly drawn)         HCT-15 colon  > 100 µM
32  NC1=NS(=O)(=O)N=C(N)C1=Cc1ccc([N+](=O)[O-])o1         HCT-15 colon   30.7 µM
